Recorded protein stability index values for a group of variants are listed next.
B1: GLT8D2 (parent)
chain: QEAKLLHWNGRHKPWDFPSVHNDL

Variants of: B1
MEASUREMENT DESCRIPTION: protein stability index of a GFP-peptide fusion (GPS, HEK-293T) (PSI 1-6); higher = more stable;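 note: lentivirally expressed fusions sorted by FACS into six bins by GFP to DsRed ratio, PSI derived from sequencing read proportions per bin multiplied by bin number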
COND: c terminus: a fixed tail appended

SEQUENCE RECORD | protein stability index
QEAKLLHWNGRHKPWDFPSVGNDL | 3.09
EEAKLLHWNGRHKPWDFPSVHNDL | 3.02
QEAKLLHWNGRHKDWDFPSVHNDL | 3.29
QGAKLLHWNGRHKPWDFPSVHNDL | 2.39
QEAKLLHWNGLHKPWDFPSVHNDL | 2.34
QRAKLLHWNGRHKPWDFPSVHNDL | 2.17
QEAKLGHWNGRHKPWDFPSVHNDL | 2.89
QEAKLLHWNGRHKPWDFPQVHNDL | 2.95
